Dear all, this message contains Ki results, target or system Myeloid Cell Leukemia 1 (Mcl-1) (Homo sapiens).
measurementType: Ki (pM)

>>> valuemeasured("C[C@@H]1[C@@H](C)C/C=C/[C@H](C(=O)N2CCOCC2)N2CC[C@H]2CN2C[C@@]3(CCCc4cc(Cl)ccc43)COc3ccc(cc32)C(=O)NS1(=O)=O [Compound 8]")
705
>>> valuemeasured("C[C@@H]1[C@@H](C)C/C=C/[C@H](C(=O)N(C)CC2CCOCC2)N2CCC[C@H]2CN2C[C@@]3(CCCc4cc(Cl)ccc43)COc3ccc(cc32)C(=O)NS1(=O)=O [Compound 3]")
27
>>> valuemeasured("C[C@@H]1[C@@H](C)C/C=C/[C@@H](C(=O)N2CCOCC2)N2CC[C@H]2CN2C[C@@]3(CCCc4cc(Cl)ccc43)COc3ccc(cc32)C(=O)NS1(=O)=O [Compound 9]")
196
>>> valuemeasured("CC1CC=CC(C(=O)N(C)CCN2CCOCC2)N2CCCC2CN2CC3(CCCc4cc(Cl)ccc43)COc3ccc(cc32)C(=O)NS(=O)(=O)C1C (centres unmarked) [Compound 5]")
24
>>> valuemeasured("C[C@@H]1[C@@H](C)C/C=C/[C@H](C(=O)N2CCOCC2)N2CCC[C@H]2CN2C[C@@]3(CCCc4cc(Cl)ccc43)COc3ccc(cc32)C(=O)NS1(=O)=O [Compound 7]")
89
>>> valuemeasured("C[C@@H]1[C@@H](C)C/C=C/[C@H](C(=O)N(C)CCC2CCOCC2)N2CCC[C@H]2CN2C[C@@]3(CCCc4cc(Cl)ccc43)COc3ccc(cc32)C(=O)NS1(=O)=O [Compound 2]")
58
>>> valuemeasured("C[C@@H]1[C@@H](C)C/C=C/[C@H](C(=O)N(C)C)N2CCC[C@H]2CN2C[C@@]3(CCCc4cc(Cl)ccc43)COc3ccc(cc32)C(=O)NS1(=O)=O [Compound 4]")
142
>>> valuemeasured("COCCN(CCOC)C(=O)[C@H]1/C=C/C[C@H](C)[C@@H](C)S(=O)(=O)NC(=O)c2ccc3c(c2)N(C[C@@H]2CCCN21)C[C@@]1(CCCc2cc(Cl)ccc21)CO3 [Compound 1]")
30
